# METHOD_DESCRIPTION: chemical genetic growth profiling, strain panel (AID 1159580);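 also: tested at 20 µM; growth read once vehicle control cultures reached saturation at 30 °C; 1 = growth at the plate median or of vehicle wells; lower values mean less growth of the strain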
# COND: S. cerevisiae deletion strains, growth OD, locus YBR231C, strain swc5
In all, about 5,500 compounds went through this assay and about 2,000 (36%) were called active. Roughly 18% stayed inconclusive and do not appear here. Rule as the data show it: active = normalized growth mostly below about 0.91 (no sharp cut-off); inconclusive = no clear call, values can overlap the other calls; inactive = mostly above about 0.92. The list shows a part of the results.
Thanks in advance; please answer with one of these: label 1 (active), label 0 (inactive)

Solved cases below.
>  <MOLECULE>
O=C(NC(Cc1cc(=O)[nH]c2ccccc12)C(=O)O)c1ccc(Cl)cc1 (stereo not drawn)

>  <CAT>
label 0

$$$$
>  <MOLECULE>
Nc1nc2c(c(=O)[nH]1)N(C=O)C(CNc1ccc(C(=O)N[C@@H](CCC(=O)O)C(=O)O)cc1)CN2 (stereo partly drawn)

>  <CAT>
label 0

$$$$
>  <MOLECULE>
O=C(O)c1cc(O)c(O)c(O)c1

>  <CAT>
label 0

$$$$
>  <MOLECULE>
CCCN(CCC)CCc1cccc2c1CC(=O)N2

>  <CAT>
label 0

$$$$
>  <MOLECULE>
Nc1nc(N)c2nc(CNc3ccc(C(=O)NC(CCC(=O)O)C(=O)O)cc3)cnc2n1 (stereo not drawn)

>  <CAT>
label 0

$$$$
>  <MOLECULE>
c1ccc(-c2ccc(C(c3ccccc3)n3ccnc3)cc2)cc1 (stereo not drawn)

>  <CAT>
label 1

$$$$

Enquiry: Short answer needed: outcome of this test for "COc1ccc(C=CC(=O)c2ccc(O)cc2O)cc1OC" ?
Return: label 1

Enquiry: Short answer needed: outcome of this test for "C[C@H](COc1ccccc1)N[C@H](C)[C@H](O)c1ccc(O)cc1" ?
Return: label 0

Enquiry: Short answer needed: outcome of this test for "CC[C@]12CCCN3CCc4c(n(c5ccccc45)[C@](O)(C(=O)OC)C1)[C@@H]32" ?
Return: label 0

Enquiry: Short answer needed: outcome of this test for CC12CCCC(O)(C1)C1CC(C)(C)C1CC2 (stereo not drawn) ?
Return: label 0

Enquiry: Short answer needed: outcome of this test for "COc1ccc(/C=C/C(=O)c2cc(O)ccc2O)cc1" ?
Return: label 1

Enquiry: Short answer needed: outcome of this test for CC1(C)CC2C1CCC1(C)OC1CCC2(C)O (stereo not drawn) ?
Return: label 0

Enquiry: Short answer needed: outcome of this test for "CCOC(=O)C1=C[C@]2(CC)CCCN3CCc4c(n1c1ccccc41)[C@@H]32" ?
Return: label 0

Enquiry: Short answer needed: outcome of this test for "CC1=C(/C=C/C(C)=C/C=C/C(C)=C\C(=O)O)C(C)(C)CCC1" ?
Return: label 0

Enquiry: Short answer needed: outcome of this test for "Nc1nc2ncc(CNc3ccc(C(=O)N[C@@H](CCC(=O)O)C(=O)O)cc3)nc2c(=O)[nH]1" ?
Return: label 0

Enquiry: Short answer needed: outcome of this test for CN(Cc1cnc2nc(N)nc(N)c2n1)c1ccc(C(=O)NC(CCC(=O)O)C(=O)O)cc1 (stereo not drawn) ?
Return: label 0

Enquiry: Short answer needed: outcome of this test for CC(COc1ccccc1)N(CCCl)Cc1ccccc1 (stereo not drawn) ?
Return: label 0

Enquiry: Short answer needed: outcome of this test for CC1(C)CC2C1CCC1(C)OC2(C)CCC1O (stereo not drawn) ?
Return: label 0

----------
# METHOD_DESCRIPTION: chemical genetic growth profiling, strain panel (AID 1159580)
# COND: S. cerevisiae deletion strains, growth OD, locus YLR085C, strain ARP6, hits give low values
Screen size: about 5,500 compounds; about 2,000 (36%) were called active. About 18% were inconclusive and are not listed. The list shows a part of the results.
MEASUREMENT_TYPE: normalized growth
Give bare numbers.

Solved cases below.
>  <COMPOUND>
COc1ccccc1NC(=O)N1CCCN(C(=O)c2cccs2)CC1

>  <ASSAY_RESULT>
1.03

$$$$
>  <COMPOUND>
O=C1NC(c2c(F)cccc2Cl)Nc2ccccc21 (configuration not stated)

>  <ASSAY_RESULT>
0.984

$$$$
>  <COMPOUND>
Cc1cc(/C=N/NC(N)=S)c2c(C)ccc(C(C)C)cc1-2

>  <ASSAY_RESULT>
1.03

$$$$
>  <COMPOUND>
Cc1ccc(CSC(=N)N)cc1

>  <ASSAY_RESULT>
1.01

$$$$
>  <COMPOUND>
O=C1CC(c2ccccc2)=NO1

>  <ASSAY_RESULT>
0.432

$$$$
>  <COMPOUND>
Cc1onc(-c2ccccc2Cl)c1C(=O)Nc1ccc2c(c1)OCO2

>  <ASSAY_RESULT>
0.997

$$$$

For each listed entry, give its normalized growth.
1. CSc1nc2ccc(NC(=O)c3c(-c4ccccc4)noc3C)cc2s1
2. O=C(CCN1CCOCC1)c1ccc2c(c1)OCCO2
3. COc1nc(N)nc(SC)n1
4. O=C(O)c1cc(C(F)(F)F)ccc1F
5. COC(=O)c1cc(OC)c(OC)cc1NS(=O)(=O)c1ccc(C)cc1
6. Cc1onc(-c2ccccc2Cl)c1C(=O)Nc1ccc(S(=O)(=O)Nc2nccs2)cc1

Return:
1: 0.85; 2: 0.259; 3: 0.984; 4: 1.02; 5: 1.03; 6: 1.05

----------
# METHOD_DESCRIPTION: chemical genetic growth profiling, strain panel (AID 1159580);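 also: tested at 20 µM; growth read once vehicle control cultures reached saturation at 30 °C; 1 = growth at the plate median or of vehicle wells; lower values mean less growth of the strain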
# COND: S. cerevisiae deletion strains, growth OD, locus YBL105C, strain PKC1, hits give low values
Hit rate of the full screen: of about 5,500 compounds, about 2,000 (36%) were called active. Not shown: some 18% with an inconclusive outcome. This is one part of the list.
Exercise: state measured normalized growth for each of the molecules provided.
Answers are plain numbers.

>  <MOLECULE>
COc1cc(N=Cc2cc(Cl)cc(Cl)c2OC(=O)c2cc(OC)c(OC)c(OC)c2)c(OC)cc1Cl

>  <normalized growth>
0.977

$$$$
>  <MOLECULE>
O=C(NCc1ccco1)c1csc(C2COc3ccccc3O2)n1 (stereo unspecified)

>  <normalized growth>
0.917

$$$$
>  <MOLECULE>
CC(C)(O)C#Cc1ccc(/C=N\Nc2c(Cl)cc(Cl)cc2Cl)cc1

>  <normalized growth>
0.982

$$$$

For each listed entry, give its normalized growth.
1. CC(C)(O)C#Cc1ccc(/C=N\Nc2ccccc2)cc1
2. COCCOc1ccccc1NC(=S)SCCSC(=S)Nc1ccccc1OCCOC
3. CN(C)/C=C/C(=O)c1ccc(C#Cc2ccccc2)cc1

Return:
0.963
0.978
0.986

----------
Exercise: state measured normalized growth for each of the molecules provided.
# METHOD_DESCRIPTION: chemical genetic growth profiling, strain panel (AID 1159580);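 also: tested at 20 µM; growth read once vehicle control cultures reached saturation at 30 °C; 1 = growth at the plate median or of vehicle wells; lower values mean less growth of the strain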
# COND: S. cerevisiae deletion strains, growth OD, locus YPR167C, strain met16, hits give low values
Hit rate of the full screen: of about 5,500 compounds, about 2,000 (36%) were called active. Not shown: some 18% with an inconclusive outcome. The list shows a part of the results.
Give bare numbers.

Solved cases below.
>  <SMILES_REPRESENTATION>
NC(=O)N/N=C\c1ccc([N+](=O)[O-])o1

>  <normalized growth>
0.987

$$$$
>  <SMILES_REPRESENTATION>
NCc1ccc(S(N)(=O)=O)cc1

>  <normalized growth>
0.99

$$$$
>  <SMILES_REPRESENTATION>
COc1cc(/C=C/C(=O)O)cc(OC)c1OC

>  <normalized growth>
1.02

$$$$

For each listed entry, give its normalized growth.
1. O=C1CN(/N=C\c2ccc([N+](=O)[O-])o2)C(=O)N1
2. O=C1N=C(O)CN1/N=C\c1ccc(-c2ccc([N+](=O)[O-])cc2)o1
3. COc1ccc(/C=C/C(=O)O)cc1OC

Return:
1: 1; 2: 1.04; 3: 1.03

----------
# METHOD_DESCRIPTION: chemical genetic growth profiling, strain panel (AID 1159580);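 also: tested at 20 µM; growth read once vehicle control cultures reached saturation at 30 °C; 1 = growth at the plate median or of vehicle wells; lower values mean less growth of the strain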
# COND: S. cerevisiae deletion strains, growth OD, locus YEL061C, strain CIN8 (second series), hits give low values
Screen size: about 5,500 compounds; about 2,000 (36%) were called active. Inconclusive results (about 18%) are left out. Some of the results follow.
Exercise: state measured normalized growth for each of the molecules provided.
Answers are plain numbers.

>  <MOLECULE>
CC1(C)CC2C1CCC1(C)OC2(C)CCC1O (centres undefined)

>  <ASSAY_RESULT>
1.02

$$$$
>  <MOLECULE>
CCn1cc(C(=O)O)c(=O)c2cnc(N3CCNCC3)nc21

>  <ASSAY_RESULT>
1

$$$$
>  <MOLECULE>
CC[C@]12CCCN3CCc4c(n(c5ccccc45)C(=O)C1)[C@@H]32

>  <ASSAY_RESULT>
1

$$$$
>  <MOLECULE>
CCCc1cc(OC)c2c(c1)OCO2

>  <ASSAY_RESULT>
0.979

$$$$

For each listed entry, give its normalized growth.
1. CCn1cc(C(=O)O)c(=O)c2cnc(N3CCCC3)nc21
2. COc1ccc(/C=C/c2cc(O)cc(O)c2)cc1

Return:
1. 1
2. 1.01
